assay: endothelial E-selectin expression blockers – imaging, HUVEC, immunofluorescence, MLSMR starter and 10KST1 sets, primary screen (AID 487); conditions: HUVEC TNFalpha-induced E-selectin immunofluorescence imaging, at 2 µM; stronger effect = higher value;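 note: signal is fraction of cell area covered by stained E-selectin grains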
READOUT_KIND: inhibition (%)
Kindly answer with a numeric value in %, unit omitted.

Known inhibition results, listed for orientation:
CC(Sc1n[nH]c(=O)[nH]c1=O)C(=O)OCc1ccccc1 (stereo unspecified) ... -83.4
Cc1ccc2c(c1)NC(=O)C(CC(=O)NCCCN1CCN(c3cc(Cl)ccc3C)CC1)O2 (stereo unspecified) ... 8.8
CCN(CC)Cc1nc2c(c(=O)[nH]1)C1(CCCCC1)Cc1ccccc1-2 ... -17
CCOc1ccc(CCN2C(=O)C3C4C=CC(C4)C3C2=O)cc1OCC (stereo unspecified) ... -51.4
Nc1nc(CSCc2ccccc2)nc(N2CCOCC2)n1 ... 17.1

Please examine the following record next.
Bench note: what inhibition did COc1ccc(C(NC(C)=O)c2ccc3cccnc3c2O)c(OC)c1 (stereo unspecified) show?
23.6

----------
test: reduction of polyQ htt aggregates in cells – imaging, exon1htt(103Q)mCFP cells, high-content imaging, primary screen (AID 483); settings: exon1htt(103Q)mCFP cell line, aggregate imaging, at 2 µM; stronger effect = higher value;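 note: compound exposure lasted 3 days before fixation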
Catalogue of inhibition of aggregation values
Kindly answer with a numeric value in %, unit omitted.

Cn1c(C(=O)NCCC2=CCCCC2)cc2c(=O)n3ccccc3nc21 ... 5.6
CCC(C)(C)NC(=O)CN(C(=O)c1snc(C(N)=O)c1N)c1ccc2c(c1)OCO2 ... 0.7
Cc1ccc2nc(/C(C#N)=N/O)[nH]c2c1 ... -7.3
COc1ccc(OC)c(NC(=O)CS(=O)(=O)c2ccccc2)c1 ... -1.6
Cc1ccc2nc3c(cc2c1)CN(Cc1ccco1)C(=NCC1CCCO1)S3 (stereo unspecified) ... 28.7

Bench note: what inhibition of aggregation did CC1CCC(NC(=O)C2CCN(c3cnccn3)CC2)CC1 (stereo unspecified) show?
-0.6

Bench note: what inhibition of aggregation did Nc1cc(-c2ccccc2)ccc1O show?
33.9

----------
Catalogue of cell count values
test: inhibitors of TNFa-induced NFkB p65 translocation, primary screen, imaging, HUVEC, MLSMR starter and 10KST1 sets (AID 438); conditions: HUVEC TNFa-induced p65 nuclear translocation; measured here: nuclei count (cytotoxicity indicator), at 2.08 µM;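 note: compound added about 3h40 before a 20 min TNFalpha stimulation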
Give the figure by itself; no unit, no explanation.

Known cell count results, listed for orientation:
CC(C)CCNC(=O)C(c1ccco1)N(CC1CCCO1)C(=O)Cn1nnc2ccccc21 (stereo not drawn) ... 393
CCn1c(C(=O)OC)cc2c1ccn2-c1ccc(F)cc1 ... 648
O=C(CN(CC1CCCO1)C(=O)CCC(=O)Nc1ccccn1)NCC1CCCO1 (stereo not drawn) ... 634
CN1C(=O)C(O)(CC(=O)c2ccc(F)cc2)c2cc(Br)ccc21 (stereo not drawn) ... 580
Cc1cc(C)n(Cc2nc3ccccc3n2C)n1 ... 451

Bench note: what cell count did CCOc1ccc(N(C(C)C(=O)NC2CCCCCC2)S(C)(=O)=O)cc1 (stereo not drawn) show?
355

Bench note: what cell count did CC(C)(C)C1CCc2c(sc3c2C(=O)NC(c2ccco2)N3)C1 (stereo not drawn) show?
639

Bench note: what cell count did Nc1nc2sc3c(c2c(=O)s1)CCCC3 show?
194

Bench note: what cell count did Cc1ccc(S(=O)(=O)NCCSc2nnnn2-c2ccc(C(N)=O)cc2)cc1 show?
650

Bench note: what cell count did Cc1ccc(Cn2c(SCC(N)=O)nc3c2c(=O)n(C)c(=O)n3C)cc1 show?
582

Bench note: what cell count did COc1ccccc1C(=O)N1CCNC(=O)C1CC(=O)Nc1ccc(Cl)cc1 (stereo not drawn) show?
469

Bench note: what cell count did O=C(Nc1cc(C(F)(F)F)ccc1Cl)C1CCN(c2nnc(-n3cccc3)s2)CC1 show?
329
